Test: chemical genetic growth profiling, strain panel (AID 1159580);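 note: tested at 20 µM; growth read once vehicle control cultures reached saturation at 30 °C; 1 = growth at the plate median or of vehicle wells; lower values mean less growth of the strain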
Details: S. cerevisiae deletion strains, growth OD, locus YPL106C, strain sse1
Screen size: about 5,500 compounds; about 2,000 (36%) were called active. About 18% were inconclusive and are not listed. Cut-off read from the data, not from the text of the source: active = normalized growth mostly below about 0.91 (no sharp cut-off); inconclusive = no clear call, values can overlap the other calls; inactive = mostly above about 0.92. The list shows a part of the results.
Classes to choose from: Yes = active, No = inactive

Prompt: Tell me the assay call for `N[C@@H](Cc1ccc(O)c(O)c1)C(=O)O` please.
Completion: No

Prompt: Tell me the assay call for `CN/C(=C\[N+](=O)[O-])NCCSCc1ccc(CN(C)C)o1` please.
Completion: No

Prompt: Tell me the assay call for `Nc1ncn([C@@H]2O[C@H](CO)[C@@H](O)[C@H]2O)c(=O)n1` please.
Completion: No

Prompt: Tell me the assay call for CN(C)CCOC(C)(c1ccccc1)c1ccccn1 (stereo not given) please.
Completion: No

Prompt: Tell me the assay call for `Nc1ccc([As](=O)(O)O)cc1` please.
Completion: No

Prompt: Tell me the assay call for `CCN(CC)CCNC(=O)c1cc(S(C)(=O)=O)ccc1OC` please.
Completion: No

Prompt: Tell me the assay call for `CC(=O)NCCCCCC(=O)O` please.
Completion: No

Prompt: Tell me the assay call for `CCN(CC)CCOc1ccc(/C(=C(\Cl)c2ccccc2)c2ccccc2)cc1` please.
Completion: Yes

Prompt: Tell me the assay call for `C[C@H](N)[C@H](O)c1ccc(O)c(O)c1` please.
Completion: No

Prompt: Tell me the assay call for CN1C(CC(=O)c2ccccc2)CCCC1CC(O)c1ccccc1 (stereo not given) please.
Completion: No

Prompt: Tell me the assay call for NCC(O)c1ccc(O)cc1 (stereo not given) please.
Completion: No

Prompt: Tell me the assay call for `CCOP(=S)(OCC)SCn1c(=O)oc2cc(Cl)ccc21` please.
Completion: No

Prompt: Tell me the assay call for `OC[C@@H](O)[C@@H](O[C@@H]1O[C@H](CO)[C@@H](O)[C@H](O)[C@H]1O)[C@H](O)[C@@H](O)CO` please.
Completion: No

Prompt: Tell me the assay call for `NC[C@H](O)c1ccc(O)c(O)c1` please.
Completion: No

Prompt: Tell me the assay call for O=C1O[C@H](C(O)CO)C(O)=C1O (stereo not given in full) please.
Completion: No

Prompt: Tell me the assay call for `Nc1ccc(S(=O)(=O)Nc2ccc(Cl)nn2)cc1` please.
Completion: No

Prompt: Tell me the assay call for CCCC(C)C1(CC)C(=O)N=C(S)NC1=O (stereo not given) please.
Completion: No

Prompt: Tell me the assay call for `CC(=O)NCCCS(=O)(=O)O` please.
Completion: No

Prompt: Tell me the assay call for `CCCCC1=NC2(CCCC2)C(=O)N1Cc1ccc(-c2ccccc2-c2nn[nH]n2)cc1` please.
Completion: No

Prompt: Tell me the assay call for `CS(=O)(=O)CCCCN=C=S` please.
Completion: Yes

----------
Assay: chemical genetic growth profiling, strain panel (AID 1159580);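 note: tested at 20 µM; growth read once vehicle control cultures reached saturation at 30 °C; 1 = growth at the plate median or of vehicle wells; lower values mean less growth of the strain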
Conditions: S. cerevisiae deletion strains, growth OD, locus YOR316C, strain cot1, hits give low values
The campaign covered roughly 5,500 compounds. About 2,000 (36%) were called active. Not shown: some 18% with an inconclusive outcome. The list shows a part of the results.
Entries whose normalized growth is below 1 take 1; entries at or above 1 take 0.

Prompt: Quick check: normalized growth of O=C1C=CC2=C3c4cc(O)c(O)cc4CC3(O)COC2=C1O (stereo not drawn) under 1?
Completion: 0

Prompt: Quick check: normalized growth of `Oc1c(I)cc(I)c2cccnc12` under 1?
Completion: 1
